The reported measurements were obtained from patent EP0923292B1.

# ASSAY_SUMMARY: Concentration of (S)-methoprene in dog blood following oral administration (HPLC)
# Format: in vivo, dogs
# CONDITION_SET: random-bred, whole blood, 50 mg/kg, Dog #529, oral 50 mg/kg one time on Day 0, day 1
QUANTITY_MEASURED: concentration at 1 day (ng/g)
Just the number please, in ng/g, no unit attached.

What value of concentration at 1 day has been reported for the following compound? COC(C)(C)CCC[C@H](C)C/C=C/C(C)=C/C(=O)OC(C)C [(S)-Methoprene]
172

----------
# ASSAY_SUMMARY: Concentration of (S)-methoprene in dog blood following oral administration (HPLC)
# Type: in vivo, dogs
# CONDITION_SET: random-bred, whole blood, 50 mg/kg, Dog #534, oral 50 mg/kg one time on Day 0, day 5
QUANTITY_MEASURED: concentration at 5 day (ng/g)
Just the number please, in ng/g, no unit attached.

What value of concentration at 5 day has been reported for the following compound? COC(C)(C)CCC[C@H](C)C/C=C/C(C)=C/C(=O)OC(C)C [(S)-Methoprene]
66.8
